# System: Plasmodium falciparum
# measurement_protocol: Inhibitory concentration against chloroquine-sensitive Plasmodium falciparum
# Type: functional, organism-based
value_type: IC50

- chemical_structure: "c1ccc(Oc2ccc(CNCCCNC3CCN(CC4CCCCC4)CC3)cc2)cc1"
  IC50: "30 nM"

Next molecule, please.
// query Recall the recorded IC50 for "CCN(CC)CCCNC1CCN(CC(c2ccccc2)c2ccccc2)CC1" with Plasmodium falciparum and state it.
// result 30 nM
